From: PubChem BioAssay (NCI)

# Tested on: OVCAR-4 ovarian
# experiment.summary: NCI tumour cell line growth inhibition, 48 h
Reported TGI by item:

- molecule: "CCCCCCCCCCn1cc[n+](C)c1"
  TGI: "> 61.4 µM"
- molecule: "O=[N+]([O-])c1ccc(Cl)cc1N/N=C/c1ccnc2ccccc12"
  TGI: "> 100 µM"
- molecule: "CC(C)c1cc2c(cc1S(=O)(=O)O)[C@@]1(C)CCC[C@@](C)(C(=O)O)C1CC2 (stereo partly drawn)"
  TGI: "> 100 µM"
- molecule: "COc1ccc2cc1Oc1ccc(cc1)C[C@H]1c3cc(c(OC)cc3CCN1C)Oc1c(O)c(OC)cc3c1[C@H](C2)N(C)CC3"
  TGI: "58.1 µM"
- molecule: "CC(=O)Nc1nc(NC(C)=O)c2[nH]c(CO)nc2n1"
  TGI: "> 100 µM"
- molecule: "Nc1c(C(=O)Nc2cccc(C(F)(F)F)c2)sc2nc3c(cc12)CCCCC3"
  TGI: "3.9 µM"
- molecule: "C=CC[C@H](C[C@H](C[C@H](C[C@H](C[C@H](C[C@H](C[C@H](C[C@H](C[C@H](C[C@H](CCCCC)OC)OC)OC)OC)OC)OC)OC)OC)OC)OC"
  TGI: "> 100 µM"
- molecule: "Cn1ccc2c3c(Oc4ccc(NC(N)=O)cc4)ccnc3ccc21"
  TGI: "> 100 µM"

---

# System: OVCAR-5 ovarian
# experiment.summary: NCI tumour cell line growth inhibition, 48 h; in the data active means GI50 below about 0.43 µM; inactive means the rest
Classes used: active, inactive

- smiles.string: "CN(C)c1cc(NN=C(c2ccc(O)cc2)c2ccc(O)cc2)c([N+](=O)[O-])cc1[N+](=O)[O-]"
  assigned.class: "inactive"
- smiles.string: "N#Cc1c[nH]n2c(N=Nc3ccc(Cl)cc3)c(O)nc12"
  assigned.class: "inactive"
- smiles.string: "O=C1c2cc3c(cc2-c2c1c1ccc(F)cc1c(=O)n2C[C@H](O)[C@@H](O)[C@H](O)CO)OCO3"
  assigned.class: "active"
- smiles.string: "CC(C)[C@@H]1C=C2CC[C@H]3[C@](C)(CN)CCC[C@]3(C)[C@H]2CC1"
  assigned.class: "inactive"

---

# Test system: SF-295 CNS
# experiment.summary: NCI tumour cell line growth inhibition, 48 h
property: TGI (µM)

- compound: "O=C(/C=C/c1ccc(O)cc1)c1ccc(O)cc1"
  measurement.target: "SF-295 CNS"
  comparison.sign: ">"
  val: 96.7
- compound: "Cc1cccc(C)c1NC(=O)CCCC(=O)C1/C(=N/NC(=O)CC#N)CCC/C1=N\\NC(=O)CC#N (stereo not given)"
  measurement.target: "SF-295 CNS"
  comparison.sign: ">"
  val: 100
- compound: "CCCCCCCCCCn1cc[n+](C)c1"
  measurement.target: "SF-295 CNS"
  comparison.sign: "="
  val: 8.43
- compound: "NC1(c2cc3ccccc3s2)CCCC1"
  measurement.target: "SF-295 CNS"
  comparison.sign: ">"
  val: 100
- compound: "N#CC(C#N)=C/C=C(\\Sc1nc2ccccc2s1)c1ccc(Cl)cc1"
  measurement.target: "SF-295 CNS"
  comparison.sign: "="
  val: 27.7

---

# Test system: MOLT-4 leukemia
# experiment.summary: NCI tumour cell line growth inhibition, 48 h

- compound: "COc1ccc(CCN=C2NC(=O)/C(=C/c3ccc4ncccc4c3)S2)cc1"
  measurement.target: "MOLT-4 leukemia"
  TGI: "> 25 µM"
- compound: "C/C(=C\\CBr)CCC(Br)C(C)(C)Br (stereo not drawn)"
  measurement.target: "MOLT-4 leukemia"
  TGI: "> 100 µM"
- compound: "CC(=O)Nn1c(=S)[nH]c2ccccc21"
  measurement.target: "MOLT-4 leukemia"
  TGI: "> 100 µM"
- compound: "COP(=O)(OC)C1=c2c(C)noc2=C2C=COC2C1=O (stereo not drawn)"
  measurement.target: "MOLT-4 leukemia"
  TGI: "> 100 µM"
- compound: "COC(=O)C1=C(C(=O)OC)SC(=C2SCSC3=C2SC(C(=O)OC)=C(C(=O)OC)C32SC3=C(CCCC3)S2)S1"
  measurement.target: "MOLT-4 leukemia"
  TGI: "> 100 µM"
- compound: "CCN1C(=O)N(c2ccccc2)C2NC(=S)N(/N=C/C=C/c3ccccc3OC)C21 (stereo not drawn)"
  measurement.target: "MOLT-4 leukemia"
  TGI: "> 100 µM"
- compound: "NC(=O)C(=Cn1c(=S)[nH]c2ccc([N+](=O)[O-])cc21)C(N)=O"
  measurement.target: "MOLT-4 leukemia"
  TGI: "> 100 µM"
- compound: "NC1(c2cc3ccccc3s2)CCCC1"
  measurement.target: "MOLT-4 leukemia"
  TGI: "47.3 µM"
- compound: "Cc1cccc(Cn2c3c(c4cc(O)ccc42)C(=O)c2ccccc2C3=O)c1"
  measurement.target: "MOLT-4 leukemia"
  TGI: "> 100 µM"
- compound: "CN(C)CC1CC/C(=C\\c2ccc(O)cc2)C1=O (stereo not drawn)"
  measurement.target: "MOLT-4 leukemia"
  TGI: "5.29 µM"
- compound: "O=[N+]([O-])c1ccc(Cl)cc1N/N=C/c1ccnc2ccccc12"
  measurement.target: "MOLT-4 leukemia"
  TGI: "> 100 µM"
- compound: "CCc1c(OC(C)=O)c2c(NC3OCC(OC(C)=O)C(OC(C)=O)C3OC(C)=O)nc(SC)nc2oc1=O (stereo not drawn)"
  measurement.target: "MOLT-4 leukemia"
  TGI: "> 100 µM"
- compound: "Cn1c2ccc3cc2c(=S)c2cc(ccc21)OCCOCCOCCOCCOCCOCCO3"
  measurement.target: "MOLT-4 leukemia"
  TGI: "> 10 µM"
- compound: "CC1(C)OC1COc1c2occc2cc2ccc(=O)oc12 (stereo not drawn)"
  measurement.target: "MOLT-4 leukemia"
  TGI: "> 100 µM"
- compound: "CC(=O)OCCOCNC(=S)N/N=C(\\C)c1cnccn1"
  measurement.target: "MOLT-4 leukemia"
  TGI: "> 100 µM"
- compound: "Cc1ccccc1C(=N)c1ccccc1Cc1cccc2ccccc12"
  measurement.target: "MOLT-4 leukemia"
  TGI: "42.3 µM"
- compound: "CCCCCC1=CC(=O)C1(Cl)Cl"
  measurement.target: "MOLT-4 leukemia"
  TGI: "15.3 µM"
- compound: "COc1ccc2nc3cc(Cl)ccc3c(NCCNCC(C)O)c2c1 (stereo not drawn)"
  measurement.target: "MOLT-4 leukemia"
  TGI: "11.1 µM"
- compound: "CC1SC(c2ccc(F)cc2)N(NC(=O)C(O)c2ccccc2)C1=O (stereo not drawn)"
  measurement.target: "MOLT-4 leukemia"
  TGI: "> 100 µM"
- compound: "CC(=O)O/N=C(/C)c1ccccc1O"
  measurement.target: "MOLT-4 leukemia"
  TGI: "> 100 µM"
- compound: "N[C@@H](CCC(=O)NCP(=O)(O)O)C(=O)O"
  measurement.target: "MOLT-4 leukemia"
  TGI: "> 100 µM"
- compound: "CCCCCCCC/C=C\\CCCCCCCCCCCC(=O)O"
  measurement.target: "MOLT-4 leukemia"
  TGI: "95.2 µM"
- compound: "Oc1ccccc1CNCc1nc2ccccc2[nH]1"
  measurement.target: "MOLT-4 leukemia"
  TGI: "> 100 µM"

---

# Test system: OVCAR-3 ovarian
# experiment.summary: NCI tumour cell line growth inhibition, 48 h
Reported TGI by item:
property: TGI

- compound: "O=C(Cc1ccc(O)c(O)c1)NCc1c[nH]c2ccccc12"
  measurement.target: "OVCAR-3 ovarian"
  property: "TGI"
  val: "> 100 µM"
- compound: "O=C1CN(c2cccc(Cl)c2)C(=O)CN1CCN1CC(=O)N(c2cccc(Cl)c2)CC1=O"
  measurement.target: "OVCAR-3 ovarian"
  property: "TGI"
  val: "> 100 µM"
- compound: "C/C(CCn1[nH]c(=O)ccc1=O)=N\\NC(=O)C(=O)NN"
  measurement.target: "OVCAR-3 ovarian"
  property: "TGI"
  val: "> 100 µM"
- compound: "COc1ccc(/C=N/NC(=O)c2cccc3cc[nH]c23)cc1O"
  measurement.target: "OVCAR-3 ovarian"
  property: "TGI"
  val: "1.89 µM"
- compound: "CCOC(=O)C1=C(C)N(c2ccc(F)cc2F)[C@]2(C#N)C(O)=C(Cl)C(Cl)=C(O)[C@]12C#N"
  measurement.target: "OVCAR-3 ovarian"
  property: "TGI"
  val: "> 100 µM"
- compound: "COC(=O)C(CCCN1C(=O)c2ccccc2C1=O)C(=O)OC"
  measurement.target: "OVCAR-3 ovarian"
  property: "TGI"
  val: "> 100 µM"
- compound: "C=C(C)CCOC(c1ccccc1)(c1ccccc1)c1ccccc1"
  measurement.target: "OVCAR-3 ovarian"
  property: "TGI"
  val: "> 100 µM"
- compound: "COC(=O)C1=C(C(=O)OC)SC(=C2SCSC3=C2SC(C(=O)OC)=C(C(=O)OC)C32SC3=C(CCCC3)S2)S1"
  measurement.target: "OVCAR-3 ovarian"
  property: "TGI"
  val: "> 100 µM"
- compound: "CC(=O)/C=C/C1=C(C)CCCC1(C)CC(C)C (stereo unspecified)"
  measurement.target: "OVCAR-3 ovarian"
  property: "TGI"
  val: "83 µM"
- compound: "O=C(NCc1ccccc1)c1n[nH][nH]c1=O"
  measurement.target: "OVCAR-3 ovarian"
  property: "TGI"
  val: "> 100 µM"
- compound: "Nc1nc(SCCC/C=C/I)nc2c1ncn2C1OC(COP(=O)(O)O)C(O)C1O (stereo unspecified)"
  measurement.target: "OVCAR-3 ovarian"
  property: "TGI"
  val: "> 100 µM"
- compound: "CC(C)=CCC[C@@H](C)c1c(O)c(O)c(C)c2nccnc12"
  measurement.target: "OVCAR-3 ovarian"
  property: "TGI"
  val: "> 100 µM"
- compound: "CC(=O)O/N=C(/C)c1ccccc1O"
  measurement.target: "OVCAR-3 ovarian"
  property: "TGI"
  val: "> 100 µM"
- compound: "O=C(C1OC1c1ccc(Br)cc1O)C12CC3CC(CC(C3)C1)C2 (stereo unspecified)"
  measurement.target: "OVCAR-3 ovarian"
  property: "TGI"
  val: "84.6 µM"
- compound: "O=C(Oc1ccc(Cl)cc1)c1ccccc1Nc1ccnc(C(F)(F)F)c1"
  measurement.target: "OVCAR-3 ovarian"
  property: "TGI"
  val: "26.4 µM"
- compound: "C[C@]12CCC3c4ccc(O)cc4CCC3C1CC[C@@]2(O)CNC(=O)/C=C/c1ccc(O)c(O)c1 (stereo partly specified)"
  measurement.target: "OVCAR-3 ovarian"
  property: "TGI"
  val: "21.5 µM"
